- Tested on: OVCAR-3
- experiment_summary: NCI tumour cell line growth inhibition, 48 h
Activity calls are given as the source filed them. Rule as the data show it: active = GI50 up to about 1.1 µM and inactive = higher.
Documented GI50 across a set of compounds

Worked examples follow.
[
  {
    "compound": "c1ccc2c(c1)nnn2CNc1ccc(N2CCCCC2)cc1",
    "outcome_measure": "GI50",
    "result": "> 100 µM (inactive)"
  },
  {
    "compound": "O=C1Oc2ccccc2C(=O)/C1=C\\NC(=S)c1ccncc1",
    "outcome_measure": "GI50",
    "result": "71.6 µM (inactive)"
  },
  {
    "compound": "COC(=O)C1=CO[C@@H](OC2OC(CO)C(O)C(O)C2O)[C@@H]2[C@H](C)[C@@H](O)[C@@H](O)[C@]12O (stereo not given in full)",
    "outcome_measure": "GI50",
    "result": "> 100 µM (inactive)"
  },
  {
    "compound": "O=C1CC(=O)NC(NN2C(=O)CSC2c2ccccc2)=N1 (stereo not given)",
    "outcome_measure": "GI50",
    "result": "> 100 µM (inactive)"
  }
]

Which GI50 value is on record for `N=C(CC(=O)NOC(=O)c1ccccc1)NOC(=O)c1ccccc1` ? 96.8 µM (inactive)

Sample COc1cc2c(cc1OC)C(=O)N1CCCC1C(=O)S2 (stereo not given) — what was its GI50? > 100 µM (inactive)

I am curious: what GI50 value has been reported for `COC(=O)C(C)(C)[C@@H]1OC(=O)N(S(=O)(=O)c2c(C)cc(C)cc2C)[C@H]1C(C)C` ? 89.9 µM (inactive)

Record request: GI50 value, item `CCc1nc2c(n1CC)C(=O)c1ccccc1C2=O` 18.7 µM (inactive)

What GI50 value was documented for this compound, `O=c1ccc2ccc(OP(=O)(O)O)cc2o1` ? > 100 µM (inactive)

Which GI50 is listed for O=C(CCC(NC(=O)OCc1ccccc1)C(=O)OCc1ccccc1)Nc1cccc(OCc2ccccc2)c1 (stereo not given) ? 22.3 µM (inactive)
